# Percent Effect annotations
- system under test: Arginase-2, mitochondrial (Homo sapiens)
- measurement protocol: in vitro enzyme assay to detect the production of urea directly proportional to the activity of Arginase II
- Format: functional
- Set-up: scale not given: in the data most compounds retested in dose-response had high values
- condition notes: 33.3 µM
All answers are understood in %, so give the number only.

Illustrative cases are given below, each with its answer.
[
  {
    "compound": "O=C(O)C1CCCCN1C(=O)c1cccc(C(F)(F)F)c1 (stereo unspecified)",
    "system under test": "Arginase-2, mitochondrial (Homo sapiens)",
    "unit of measure": "%",
    "Percent Effect": -2.88
  },
  {
    "compound": "Fc1cccc(CN2CCO[C@H]3[C@@H](OCc4ccccn4)CC[C@@H]32)c1",
    "system under test": "Arginase-2, mitochondrial (Homo sapiens)",
    "unit of measure": "%",
    "Percent Effect": -3.24
  },
  {
    "compound": "CC(CCc1ccccc1)NC(=O)Nc1cnn(CC(N)=O)c1 (stereo unspecified)",
    "system under test": "Arginase-2, mitochondrial (Homo sapiens)",
    "unit of measure": "%",
    "Percent Effect": -4.52
  },
  {
    "compound": "O=C(CCCc1nnc(-c2ccccc2)o1)N1CCN(CCO)CC1",
    "system under test": "Arginase-2, mitochondrial (Homo sapiens)",
    "unit of measure": "%",
    "Percent Effect": 5.7
  },
  {
    "compound": "CCn1nc(C)c2ncnc(NCCCN3CCOCC3)c21",
    "system under test": "Arginase-2, mitochondrial (Homo sapiens)",
    "unit of measure": "%",
    "Percent Effect": -2.64
  },
  {
    "compound": "COc1cccc(-c2noc(-c3ccc(NCC4CC4)nc3)n2)c1OC",
    "system under test": "Arginase-2, mitochondrial (Homo sapiens)",
    "unit of measure": "%",
    "Percent Effect": 2.08
  },
  {
    "compound": "O=C(c1ccoc1)N1CC[C@@H]2[C@H]1CCC(=O)N2c1ccccc1",
    "system under test": "Arginase-2, mitochondrial (Homo sapiens)",
    "unit of measure": "%",
    "Percent Effect": -1.63
  },
  {
    "compound": "CCOc1ccc(CN2CCN(C(=O)c3ccc(C)n3C)CC2)cc1",
    "system under test": "Arginase-2, mitochondrial (Homo sapiens)",
    "unit of measure": "%",
    "Percent Effect": -4.43
  }
]

Enquiry: Name the reported Percent Effect value associated with the compound Cc1cnn(C2CCCN(C(=O)c3ccnc(-n4ccnc4)c3)C2)c1 (stereo unspecified)
Return: 3.66

Enquiry: Name the reported Percent Effect value associated with the compound Cc1nccn1CCC1CCCCN1Cc1ccc(N(C)C)nc1 (stereo unspecified)
Return: 4.69

Enquiry: Name the reported Percent Effect value associated with the compound Cc1cccc(CS(=O)(=O)CC(=O)NCCCOC(C)C)c1
Return: 3.92

----------
- system under test: Chromo domain-containing protein 1 (Saccharomyces cerevisiae (strain ATCC 204508 / S288c) (Baker's yeast))
- measurement protocol: ScCHD-1 Enzyme Inhibition Assay
- Assay type: functional
- Parameters: scale not given: in the data most compounds retested in dose-response had high values
- condition notes: 30 µM
# Percent Effect annotations
All answers are understood in %, so give the number only.

Illustrative cases are given below, each with its answer.
[
  {
    "compound": "CN(Cc1ccco1)C(=O)CN1CCCCC1Cn1cccn1 (stereo not drawn)",
    "obs value": -9.28
  },
  {
    "compound": "Fc1cccnc1OC[C@@]12CCO[C@@H]1CCN(CC1CCOCC1)C2",
    "obs value": -9.09
  },
  {
    "compound": "Cc1occc1C(=O)N1CCC2(CCC(C(=O)NCC3CC3)O2)CC1 (stereo not drawn)",
    "obs value": -4.43
  },
  {
    "compound": "Cn1cc(CN2CC[C@H]3OCC[C@@H](C(=O)N4CCCCO4)[C@@H]3C2)cn1",
    "obs value": -4.05
  },
  {
    "compound": "CCC(CC)C(O)CNC(=O)Nc1cc(C)nn1C (stereo not drawn)",
    "obs value": -6.04
  },
  {
    "compound": "COCCO[C@H]1CCN(C(=O)C2CCOCC2)[C@H]1Cc1ccncc1",
    "obs value": -2.62
  }
]

Enquiry: Name the reported Percent Effect value associated with the compound Cc1cc(C)c(OCC(=O)NS(=O)(=O)c2c(C)noc2C)c(C)c1
Return: 1.12

Enquiry: Name the reported Percent Effect value associated with the compound CCNC(=O)c1cnc(Cc2ccc(F)cc2)s1
Return: -2.95

Enquiry: Name the reported Percent Effect value associated with the compound CC(=O)N1CCN(C(=O)C(C)n2cncn2)CC1 (stereo not drawn)
Return: -21.9
